Tested on: isolated rat liver mitochondria
TEST: Oxygen consumption, Clark-type oxygen electrode
Type: biochemical
CONDITION LABEL: 0.8 µM; succinate-driven state 3 respiration; isolated rat liver mitochondria
Measured II-ADP, % of control (O2 consumption rate) of individual entries
EXPERIMENTAL ENDPOINT: II-ADP, % of control (O2 consumption rate)

> print(dat)
                                   molecule              data.value
1  N#CC(c1ccc(Cl)cc1)c1c(Cl)cc(-n2ncc(=O)[nH]c2=O)cc1Cl (stereo not shown) [Diclazuril, reference compound]  88 (59.6) % of control
2  COc1cc2c(cc1OC)-c1cc3ccc(OC)c(OC)c3c[n+]1CC2 [Palmatine chloride hydrate]  96 (51.6) % of control
3  Cl.N=C1C=CC(=C(c2ccc(N)cc2)c2ccc(N)cc2)C=C1 [C.I. Basic red 9 monohydrochloride]  97 (65.8) % of control
4    Cc1cc(O)c2c(c1)C(=O)c1cc(O)cc(O)c1C2=O  94 (59.4) % of control

====

Test system: HepG2 cells
TEST: cells
CONDITION LABEL: Homo sapiens, HepG2, 1 h, read-out: HepG2 IC50 Galactose (MMP)
EXPERIMENTAL ENDPOINT: IC50 (µM)

COMPOUND	EXPERIMENTAL ENDPOINT	DATA VALUE
CC(C)(C)c1cc([N+](=O)[O-])cc([N+](=O)[O-])c1O	IC50	7.19
NNc1nc(-c2ccc([N+](=O)[O-])cc2)cs1 [2-Hydrazino-4-(4-nitrophenyl)thiazole]	IC50	14.2
NNc1nc(-c2ccccc2)cs1 [2-Hydrazino-4-phenylthiazole]	IC50	48.2
CCCCCC[C@H]1C(=O)O[C@H](C)[C@H](NC(=O)c2cccc(NC=O)c2O)C(=O)O[C@@H](C)[C@@H]1OC(=O)CC(C)C [Antimycin A, reference compound]	IC50	0.25
Cc1cc(Cc2cc(C)cc(C(C)(C)C)c2O)c(O)c(C(C)(C)C)c1	IC50	6.6
N#CC(c1ccc(Cl)cc1)c1c(Cl)cc(-n2ncc(=O)[nH]c2=O)cc1Cl (stereo not drawn) [Diclazuril, reference compound]	IC50	46.3
O=C1c2c(O)ccc([N+](=O)[O-])c2C(=O)c2c([N+](=O)[O-])ccc(O)c21 [1,8-Dihydroxy-4,5-dinitroanthraquinone]	IC50	2.81
O=C(Nc1ccc(Cl)cc1)Nc1ccc(Cl)c(Cl)c1	IC50	1.36
C=C(C)[C@H]1Cc2c(ccc3c2O[C@@H]2COc4cc(OC)c(OC)cc4[C@@H]2C3=O)O1 [Rotenone, reference compound]	IC50	31.8

====

Test system: HepG2 cells
TEST: cells
CONDITION LABEL: Homo sapiens, HepG2, read-out: MMP assays IC50 (µM) HepG2

MOLECULE	IC50 / µM
C[C@@H]1O[C@@H](O[C@H]2C[C@@H](O)[C@]3(CO)[C@H]4[C@H](O)C[C@]5(C)[C@@H](C6=CC(=O)OC6)CC[C@]5(O)[C@@H]4CC[C@]3(O)C2)[C@H](O)[C@H](O)[C@H]1O [Ouabain]	0.22
Oc1ccc(/N=N/c2ccccc2)cc1 [p-Phenylazophenol]	10
CC(=O)O[C@H]1C[C@H](O[C@H]2[C@@H](O)C[C@H](O[C@H]3[C@@H](O)C[C@H](OC4CC[C@@]5(C)[C@H](CC[C@@H]6[C@@H]5CC[C@]5(C)[C@@H](C7=CC(=O)OC7)CC[C@]65O)C4)O[C@@H]3C)O[C@@H]2C)O[C@H](C)[C@H]1O[C@@H]1O[C@H](CO)[C@@H](O)[C@H](O)[C@H]1O (stereo partly drawn) [Lanatoside A]	0.14
